// values below are reported MIC
Test system: Micrococcus luteus
Experiment: Compound was tested in vitro for antibacterial activity against Sarcina lutea.
Type: functional, sarcinea lutea
measuredProperty: MIC (µg/mL)

> print(dat)
                               linenotation              system  measuredproperty  assayvalue
1  C[C@@H](O)[C@H]1C(=O)N2C(C(=O)[O-])=C(OCCOC(N)=O)S[C@H]12.[Na+]  Micrococcus luteus               MIC         0.5
2  CCOC1=C(C(=O)[O-])N2C(=O)[C@H]([C@@H](C)O)[C@H]2S1.[Na+]  Micrococcus luteus               MIC           1
3  CCCCOC1=C(C(=O)[O-])N2C(=O)[C@H]([C@@H](C)O)[C@H]2S1.[Na+]  Micrococcus luteus               MIC           1
4  COC1=C(C(=O)[O-])N2C(=O)[C@H]([C@@H](C)O)[C@H]2S1.[Na+]  Micrococcus luteus               MIC           2
5  CCCOC1=C(C(=O)[O-])N2C(=O)[C@H]([C@@H](C)O)[C@H]2S1.[Na+]  Micrococcus luteus               MIC           1
6  C[C@@H](O)[C@H]1C(=O)N2C(C(=O)[O-])=C(OCCN)S[C@H]12.[Na+]  Micrococcus luteus               MIC          32

* * *

System: Staphylococcus
Assay: Compound was tested in vitro for antibacterial activity against Staphylococcus.
Type: functional
Each record is given fulfilled if its reported MIC is strictly below 2 mg/L. Records at or above 2 mg/L are given not fulfilled.

> print(dat)
                               linenotation          system     labelvalue
1  CCCCOC1=C(C(=O)[O-])N2C(=O)[C@H]([C@@H](C)O)[C@H]2S1.[Na+]  Staphylococcus      fulfilled
2  C[C@@H](O)[C@H]1C(=O)N2C(C(=O)[O-])=C(OCCOC(N)=O)S[C@H]12.[Na+]  Staphylococcus      fulfilled
3  COC1=C(C(=O)[O-])N2C(=O)[C@H]([C@@H](C)O)[C@H]2S1.[Na+]  Staphylococcus      fulfilled
4  CCOC1=C(C(=O)[O-])N2C(=O)[C@H]([C@@H](C)O)[C@H]2S1.[Na+]  Staphylococcus  not fulfilled
5  CCCOC1=C(C(=O)[O-])N2C(=O)[C@H]([C@@H](C)O)[C@H]2S1.[Na+]  Staphylococcus      fulfilled
6  C[C@@H](O)[C@H]1C(=O)N2C(C(=O)[O-])=C(OCCN)S[C@H]12.[Na+]  Staphylococcus  not fulfilled

Cited source: ChEMBL document CHEMBL1130611
